The measurements presented in this section are drawn from paper PMC7114209.

experiment: Cell growth and viability assay; format: cell-based; details: human, Raji cells, CC50, cytotoxic concentration that decreased cell viability to 50% of untreated cells, MTT, mean ± S.D. of three experiments
readout: CC50 at 3 days
Output should be the measured figure followed by the unit it is expressed in.

*Q* Provide one value: measured CC50 at 3 days of `CC1(C)[C@@H](O[C@H]2O[C@H](C(=O)O)[C@@H](O)[C@H](O)[C@H]2O[C@@H]2O[C@H](C(=O)O)[C@@H](O)[C@H](O)[C@H]2O)CC[C@]2(C)[C@H]3C(=O)C=C4[C@@H]5C[C@@](C)(C(=O)O)CC[C@]5(C)CC[C@@]4(C)[C@]3(C)CC[C@@H]12`
*A* 4.5 mM
